# TGT: full-length human CSNK1A1 (Homo sapiens)
# Construct: N-terminal Glutathion-S-Transferase (GST) and full-length human CSNK1A1; purchased Life Technologies PV4174; host or cells: baculovirus infected insect cells
# Sequence (P48729 whole entry): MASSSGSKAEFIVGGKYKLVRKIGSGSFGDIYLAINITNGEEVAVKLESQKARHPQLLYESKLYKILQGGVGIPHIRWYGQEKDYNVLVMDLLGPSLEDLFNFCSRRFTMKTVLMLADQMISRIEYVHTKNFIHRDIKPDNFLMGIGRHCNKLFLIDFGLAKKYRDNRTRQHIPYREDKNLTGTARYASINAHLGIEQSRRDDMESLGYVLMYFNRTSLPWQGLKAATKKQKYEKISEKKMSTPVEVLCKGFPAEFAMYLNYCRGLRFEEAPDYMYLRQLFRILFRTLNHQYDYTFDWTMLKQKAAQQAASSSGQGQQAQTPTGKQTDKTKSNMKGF
# EXPERIMENT SUMMARY: CSNK1A1 Assay 2 (ADP-Glo, 1 μM ATP, substrate biotin-Ahx-KRRRAL-pS-VASLPGL)
# Assay type: biochemical
# ASSAY CONTEXT: Table 3, read-out: CSNK1A1 Assay 2 IC50 [mol/l] (median)
pIC50: −log10 of the molar value.
METRIC: pIC50

COMPOUND	MEASURED VALUE
O=C(Nc1cc(-c2[nH]c3c(OCC(F)F)ncnc3c2-c2ccccn2)ccn1)C(CC(F)F)c1ccc(F)cc1 (single isomer, unassigned) [Example 80]	7.77
COCCOc1cc(F)nc2c(-c3ccccn3)c(-c3ccnc(NC(=O)C(CC(F)F)c4ccc(F)cc4)c3)[nH]c12 (single isomer, unassigned) [Example 90]	8.61
CC(C)(O)c1cc(F)nc2c(-c3ccccn3)c(-c3ccnc(NC(=O)C(CC(F)F)c4ccc(F)cc4)c3)[nH]c12 (single isomer, unassigned) [Example 100]	7.47

Just for reference, patent US12692261B2 is where these values come from.
